# assaySystem: human PRMT5 complex enzyme (Homo sapiens, UniProt O14744)
# Sequence (O14744 whole entry): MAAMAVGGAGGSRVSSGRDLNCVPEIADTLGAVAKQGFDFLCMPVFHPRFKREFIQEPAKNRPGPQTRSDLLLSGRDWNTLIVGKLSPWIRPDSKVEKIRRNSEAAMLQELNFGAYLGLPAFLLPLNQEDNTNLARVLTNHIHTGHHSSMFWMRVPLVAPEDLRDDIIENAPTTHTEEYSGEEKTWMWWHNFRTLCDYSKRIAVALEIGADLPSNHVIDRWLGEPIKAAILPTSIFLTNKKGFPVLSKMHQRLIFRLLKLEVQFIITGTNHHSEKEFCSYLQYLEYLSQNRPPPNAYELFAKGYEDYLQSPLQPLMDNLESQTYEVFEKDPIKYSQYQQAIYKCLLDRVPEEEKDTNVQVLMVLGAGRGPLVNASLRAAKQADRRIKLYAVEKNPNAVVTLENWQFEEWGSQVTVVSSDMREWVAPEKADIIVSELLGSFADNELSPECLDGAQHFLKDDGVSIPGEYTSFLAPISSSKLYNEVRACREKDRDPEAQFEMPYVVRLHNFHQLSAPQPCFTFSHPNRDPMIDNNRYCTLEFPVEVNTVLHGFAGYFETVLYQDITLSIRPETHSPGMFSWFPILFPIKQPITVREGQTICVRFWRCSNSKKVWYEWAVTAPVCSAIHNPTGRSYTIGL
# Sequence (Q9BQA1 whole entry partner): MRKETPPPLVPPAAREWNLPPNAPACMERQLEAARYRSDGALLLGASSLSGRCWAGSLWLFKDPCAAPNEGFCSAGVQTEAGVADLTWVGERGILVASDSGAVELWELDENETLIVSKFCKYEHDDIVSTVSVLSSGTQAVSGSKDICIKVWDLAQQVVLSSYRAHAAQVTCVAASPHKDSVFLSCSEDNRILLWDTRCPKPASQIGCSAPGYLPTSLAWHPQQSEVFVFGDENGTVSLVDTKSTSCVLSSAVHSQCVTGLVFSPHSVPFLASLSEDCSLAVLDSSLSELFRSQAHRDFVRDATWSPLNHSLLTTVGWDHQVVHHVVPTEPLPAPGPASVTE
# testProtocol: PRMT5 inhibition study ([3H]SAM / Histone H4 methylation, filter scintillation counting)
# Format: biochemical
# assaySetup: 30 μM test compound; 120 min at 22° C.; 600 nM [3H]SAM, 250 nM Histone H4 full length; percent inhibition of the control enzyme activity
# cutoff 40% applies to inhibition at 30 µM; >= gives Fulfilled, < gives Not fulfilled

compound=CCCN[C@H]1C[C@]2(C[C@@H](n3cnc4c(N)ncnc43)[C@H](O)[C@@H]2O)C1 assaysystem="human PRMT5 complex enzyme (Homo sapiens, UniProt O14744)" assignedclass=Fulfilled
compound="Nc1ncnc2c1ncn2[C@@H]1O[C@@]2(CC[C@@H]2O)C(O)C1O (stereo partly shown)" assaysystem="human PRMT5 complex enzyme (Homo sapiens, UniProt O14744)" assignedclass=Fulfilled
compound="CCCN(C)C[C@H]1C[C@]12O[C@@H](n1cnc3c(N)ncnc31)C(O)C2O (stereo partly shown)" assaysystem="human PRMT5 complex enzyme (Homo sapiens, UniProt O14744)" assignedclass="Not fulfilled"
compound=Nc1ncnc2c1ccn2[C@@H]1C[C@]2(C[C@H](Cc3cccnc3)C2)[C@@H](O)[C@H]1O assaysystem="human PRMT5 complex enzyme (Homo sapiens, UniProt O14744)" assignedclass=Fulfilled
compound="Nc1ncnc2c1ncn2[C@@H]1O[C@]2(C[C@H]2CO)C(O)C1O (stereo partly shown)" assaysystem="human PRMT5 complex enzyme (Homo sapiens, UniProt O14744)" assignedclass="Not fulfilled"
compound="Nc1ncnc2c1ncn2[C@@H]1O[C@@]2(C[C@@H]2CO)C(O)C1O (stereo partly shown)" assaysystem="human PRMT5 complex enzyme (Homo sapiens, UniProt O14744)" assignedclass="Not fulfilled"
compound=Nc1ncnc2c1ncn2[C@@H]1O[C@]2(C[C@H](O)C2)[C@@H](O)[C@H]1O assaysystem="human PRMT5 complex enzyme (Homo sapiens, UniProt O14744)" assignedclass="Not fulfilled"
compound="Nc1ncnc2c1ncn2[C@@H]1O[C@@]2(C[C@H]2CO)C(O)C1O (stereo partly shown) [drawing 332]" assaysystem="human PRMT5 complex enzyme (Homo sapiens, UniProt O14744)" assignedclass="Not fulfilled"
compound="Nc1ncnc2c1ncn2[C@@H]1O[C@@]2(CC[C@H]2O)C(O)C1O (stereo partly shown)" assaysystem="human PRMT5 complex enzyme (Homo sapiens, UniProt O14744)" assignedclass=Fulfilled
compound=Nc1ncnc2c1ccn2[C@@H]1C[C@]2(C[C@@H](Cc3ccn4ccnc4c3)C2)[C@@H](O)[C@H]1O assaysystem="human PRMT5 complex enzyme (Homo sapiens, UniProt O14744)" assignedclass=Fulfilled
compound=Nc1ncnc2c1ccn2[C@@H]1O[C@]2(C[C@@H](N)C2)[C@@H](O)[C@H]1O assaysystem="human PRMT5 complex enzyme (Homo sapiens, UniProt O14744)" assignedclass=Fulfilled
compound="Nc1ncnc2c1ncn2[C@@H]1O[C@]2(C[C@@H]2CO)C(O)C1O (stereo partly shown)" assaysystem="human PRMT5 complex enzyme (Homo sapiens, UniProt O14744)" assignedclass=Fulfilled

Hello, the source for this data is patent US20220275018A1, in case you need it.
